I'd appreciate it if you could supply Resp. freq. values for the items below.
# System: PBMCs from LTBI donors (IFN-γ production)
# Assay type: cell-based, human
# PROTOCOL_CONDITIONS: fraction of 28 LTBI donors responding to epitopes of the antigen, ex vivo IFN-γ ELISPOT
A number alone suffices; assume %.

Any idea what its Resp. freq. is? The molecule is Rv0294: MTB protein, novel CD4 T cell antigen; Intermediary metabolism and respiration, Island 1 (protein, listed as Mycobacterium tuberculosis) MWDPDVYLAFSGHRNRPFYELVSRVGLERARRVVDLGCGPGHLTRYLARRWPGAVIEALDSSPEMVAAAAERGIDATTGDLRDWKPKPDTDVVVSNAALHWVPEHSDLLVRWVDELAPGSWIAVQIPGNFETPSHAAVRALARREPYAKLMRDIPFRVGAVVQSPAYYAELLMDTGCKVDVWETTYLHQLTGEHPVLDWITGSALVPVRERLSDESWQQFRQELIPLLNDAYPPRADGSTIFPFRRLFMVAEVGGARRSGG
18

Same lookup for Rv1791: MTB protein, novel CD4 T cell antigen; PE/PPE (protein, listed as Mycobacterium tuberculosis) MSFVTTQPEALAAAAANLQGIGTTMNAQNAAAAAPTTGVVPAAADEVSALTAAQFAAHAQMYQTVSAQAAAIHEMFVNTLVASSGSYAATEAANAAAAG , please.
25

Same lookup for Rv0299: MTB protein, novel CD4 T cell antigen; Conserved hypotheticals (protein, listed as Mycobacterium tuberculosis) MIAPGDIAPRRDSEHELYVAVLSNALHRAADTGRVITCPFIPGRVPEDLLAMVVAVEQPNGTLLPELVQWLHVAALGAPLGNAGVAALREAASVVTALLC , please.
14

Same lookup for Rv1366: MTB protein, novel CD4 T cell antigen; Conserved hypotheticals (protein, listed as Mycobacterium tuberculosis) MVVALVGSAIVDLHSRPPWSNNAVRRLGVALRDGVDPPVDCPSYAEVMLWHADLAAEVQDRIEGRSWSASELLVTSRAKSQDTLLAKLRRRPYLQLNTIQDIAGVRIDADLLLGEQTRLAREIADHFGADQPAIHDLRDHPHAGYRAVHVWLRLPAGRVEIQIRTILQSLWANFYELLADAYGRGIRYDERPEQLAAGVVPAQLQELVGVMQDASADLAMHEAEWQHCAEIEYPGQRAMALGEASKNKATVLATTKFRLERAINEAESAGGGG , please.
11
